Molecular target: Speckle-type POZ protein (Homo sapiens) (UniProt O43791)
Sequence (O43791 whole entry, the tested form may be a part): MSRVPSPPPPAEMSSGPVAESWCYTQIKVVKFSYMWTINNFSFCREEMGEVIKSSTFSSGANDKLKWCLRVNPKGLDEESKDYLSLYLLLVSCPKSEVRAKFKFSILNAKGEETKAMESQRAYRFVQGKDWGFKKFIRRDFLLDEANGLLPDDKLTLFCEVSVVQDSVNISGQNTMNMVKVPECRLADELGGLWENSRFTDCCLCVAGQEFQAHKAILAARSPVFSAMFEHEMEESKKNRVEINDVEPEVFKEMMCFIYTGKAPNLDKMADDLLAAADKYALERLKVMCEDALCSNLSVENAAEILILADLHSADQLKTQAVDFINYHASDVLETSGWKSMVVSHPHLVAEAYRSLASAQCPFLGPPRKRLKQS
Assay: Binding affinity to recombinant N-terminal GST/His-tagged MATH binding domain SPOP (unknown origin) expressed in Escherichia coli BL21 (DE3) assessed as change in melting temperature at 10 fold compound incubated for 15 mins by nano differential scanning fluorimetry (reference value: -1.7 degreeC)
Quantity Measured: ΔTm (°C)

Sample records with ΔTm:
{"Compound Structure String": "Cc1cccn2c(=O)c3cc(C(=O)NCCc4ccccc4)c(=N)n(CCc4cccs4)c3nc12", "Unit Of Measurement": "°C", "ΔTm": 3.5}
{"Compound Structure String": "Cc1cccn2c(=O)c3cc(C(=O)O)c(=N)n(CCc4ccccc4)c3nc12", "Unit Of Measurement": "°C", "ΔTm": 2.3}
{"Compound Structure String": "Cc1cccn2c(=O)c3cc(C(=O)NCCCN4CCOCC4)c(=N)n(CCc4ccc(Br)cc4)c3nc12", "Unit Of Measurement": "°C", "ΔTm": 2.3}
{"Compound Structure String": "Cc1cccn2c(=O)c3cc(C(=O)NCCCN4CCOCC4)c(=N)n(CCc4cccc(F)c4)c3nc12", "Unit Of Measurement": "°C", "ΔTm": 3.7}
{"Compound Structure String": "COc1ccc(CCn2c(=N)c(C(=O)NCCCN3CCOCC3)cc3c(=O)n4cccc(C)c4nc32)cc1", "Unit Of Measurement": "°C", "ΔTm": 2.5}

A. Cc1cccn2c(=O)c3cc(C(=O)NCCCN4CCOCC4)c(=N)n(CCc4cccs4)c3nc12
B. CCOC(=O)c1cc2c(=O)n3cccc(C)c3nc2n(CCc2cccs2)c1=N
C. CCOC(=O)c1cc2c(=O)n3cccc(C)c3nc2n(CCc2ccc(C)cc2)c1=N
Sort (3 compounds) by ΔTm: min first. Quick reminder: the answer is the labels in the order asked.
C, A, B
(C: 0.8 °C, A: 3.2 °C, B: 4.9 °C)
